test system: Staphylococcus aureus; assay: Antimicrobial activity against Staphylococcus aureus MTCC 96 after 24 hrs by microdilution method; format: functional; details: MTCC 96, 24 h
Listed below: MIC values for each entry.
recorded_endpoint: MIC (µg/mL)

> print(dat)
                        structure.as.smiles  observed
1  Cc1c(-c2nnc(-c3ccc(Cl)cc3)o2)c(-c2ccccc2)nn1-c1ccccc1        45
2  COc1cc(-c2nnc(-c3c(-c4cc(OC)c(OC)c(OC)c4)nn(-c4ccccc4)c3C)o2)cc(OC)c1OC        20
3  COc1cc(-c2nnc(-c3c(-c4ccccc4)nn(-c4ccccc4)c3C)o2)cc(OC)c1OC        40
4  Cc1c(-c2nnc(-c3ccc([N+](=O)[O-])cc3)o2)c(-c2ccc([N+](=O)[O-])cc2)nn1-c1ccccc1        20
5  COc1cc(-c2nn(-c3ccccc3)c(C)c2-c2nnc(-c3ccccc3)o2)cc(OC)c1OC        20
6  Cc1c(-c2nnc(-c3ccccc3)o2)c(-c2ccccc2)nn1-c1ccccc1        35
7  COc1ccc(-c2nn(-c3ccccc3)c(C)c2-c2nnc(-c3ccccc3)o2)cc1OC        40
8  COc1ccc(-c2nnc(-c3c(-c4ccccc4)nn(-c4ccccc4)c3C)o2)cc1        35
9     Cc1c(C(=O)NN)c(-c2ccccc2)nn1-c1ccccc1        40
